# experimentNotes: NCI Yeast Anticancer Drug Screen. Data for the bub3 strain (AID 167)
# conditionSummary: S. cerevisiae bub3 mutant strain, at 50.0 µM, stronger effect = higher value
Compounds without any hit were thinned out: in the full panel of roughly 79,000, 15% have a hit.
measuredParameter: growth inhibition (%)
Give the number; % is assumed, so skip it.

Here is how some molecules turned out for growth inhibition.
[[record]]
molecule = "CC1=CC(OC2CCCCO2)CC(C)(C)C1 (stereo not given)"
measured = 0.05

[[record]]
molecule = "N#CC(C#N)=NO (tested in a mixture with another compound)"
measured = 5.3

[[record]]
molecule = "S=C(S)OC1CCCCC1.[Zn+2]"
measured = -24.8

[[record]]
molecule = "C/C=N\\n1c(C)c(C#N)c(C#N)c1N"
measured = -21.7

[[record]]
molecule = "[O-][N+]1(CC[N+]2([O-])CCCCC2)CCCCC1"
measured = -0.65


Q: Requested field: growth inhibition. Item: CC(=O)OC1=C(C)C2=C3OC(=O)C(C)=C3CC[C@@]2(C)CC1
A: 25

Q: What does the data say about its growth inhibition? Entry: Cc1cc(C)c(C2=[N+]([O-])ON3CCc4ccccc4C23)c(C)c1 (stereo not given)
A: -5.3

Q: Could you share which growth inhibition value was measured for O=C(CCN1CCOCC1)c1csc2ccccc12 ?
A: -5.35

Q: For the molecule shown here, C/C(=N/NC(N)=O)C1=CCCCC1 , give the reported growth inhibition.
A: 0.7

Q: Could you tell me which growth inhibition is on file for NC(=O)CCC(N)=O ?
A: 17.1

Q: Requested read-out: growth inhibition. Entry: O=C(O)C(CBr)c1ccccc1 (stereo not given)
A: 0.05

Q: Param item = COC(=O)[C@@H]1CCC(/C(C#N)=C2/CC[C@@H](C(=O)OC)N2)=N1 ; retrieve measured growth inhibition.
A: 13.2

Q: For the molecule shown here, CC1(C)OCC(C2OC3OC(C)(C)OC3C2OP(=O)(N2CC2)N2CC2)O1 (stereo not given) , give the reported growth inhibition.
A: -70.8

Q: Item under review: CC(=O)Nc1ccc(N)cc1-c1ccc(N)cc1 . Reported growth inhibition?
A: 5.25

Q: // lookup growth inhibition for CCCCCCCCCCCCCCCCCC[N+](C)(C)Cc1c(Cl)c(Cl)c(Cl)c(Cl)c1Cl
A: 24.6

Q: What value of growth inhibition has been reported for the following molecule? CCOC(OC(C)=O)[C@@H]1C=C[C@H](C)N(c2ccc([N+](=O)[O-])cc2)O1 (stereo not given in full)
A: 42.6

Q: Would you mind telling me what growth inhibition value was observed for O=C(CN1CCN(c2ccccc2)CC1)N1CCc2c([nH]c3ccccc23)C1c1cccnc1 (stereo not given) ?
A: 4.35

Q: Query (molecule): CC(=O)c1ccc(C)cc1C ; field requested: growth inhibition
A: 15.4

Q: Item O=C(O)C(O)C(O)C(O)C(O)C(O)CO.[NH-]C1CCCCC1[NH-].[Pt+2] (stereo not given) has what recorded growth inhibition?
A: 6.15

Q: Any idea what its growth inhibition is? The molecule is O=C(O)c1ccccc1C(=O)c1ccc(F)c2ccccc12
A: 3.75

Q: Reported growth inhibition, molecule COC1OC(=O)c2cccc3cccc1c23 (stereo not given) : ____
A: -2.4

Q: What does the record list as growth inhibition for C=C(C)c1ccc(F)cc1 ?
A: -2.05

Q: I have this molecule here, COC(=O)c1ccccc1NC(=O)C(=O)NNC(=O)c1ccncc1 , and I need its recorded growth inhibition.
A: -0.8

Q: # lookup: growth inhibition of CC1(CO)COC(=O)C(C)(C2(C)NC(C)(CO)COC2=O)N1 (stereo not given)
A: -24.2

Q: Record request: growth inhibition value, item O=CNCC(=O)Nc1ccccc1
A: 10.8
